Where do these numbers come from? They come from the supplement of paper PMC7411054.

Tested on: A549-GM130-SQSTM1
Assay: phenotypically active (imaging signature differs from DMSO and reproducible) at any of 0.3-9 uM (binary (1 = active, 0 = inactive)); higher = active
Conditions: treatment time: 24 h
Where a name gives a salt, the structure may show the parent alone.
Bench note: report the call from t for active, f for inactive

Take a look at these entries with their results.
> print(dat)
                                   compound  discrete.label
1     COc1ccc2c(c1)/C(=C/c1c[nH]cn1)C(=O)N2               t
2  O=C(NCCN1CCC2(CC1)C(=O)NCN2c1cccc(F)c1)c1ccc(F)c(F)c1 [ML 298 hydrochloride]               t
3  C[C@]12CC[C@H](O)C[C@H]1CC[C@@H]1[C@@H]2C[C@@H](O)[C@]2(C)[C@@H](C3=CC(=O)OC3)CC[C@]12O [Digoxigenin]               t

Switching to the query record.
Query block: Dear all, I need the recorded test outcome for CN1[C@@H]2CC(=O)C[C@H]1[C@H](O)C2 [6-Hydroxytropinone] , thank you.
Result block: f
